Biological target: T1, IFN-αJ1 (human, UniProt P01567 24-189)
T1 construct: also called IFN-α7; alpha J1
Assay: ProteOn, one antigen concentration
recorded-endpoint: Kd (nM)
Output spec: scalar in nM, unitless text.

IFWM3307 (antibody, V domains shown, VH IFWH591, VL IFWL1001; converted mAb; also called IFWB3042) VH: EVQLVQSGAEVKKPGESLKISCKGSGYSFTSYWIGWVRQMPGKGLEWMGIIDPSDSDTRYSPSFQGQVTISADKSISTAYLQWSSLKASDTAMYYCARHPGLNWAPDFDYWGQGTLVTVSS VL: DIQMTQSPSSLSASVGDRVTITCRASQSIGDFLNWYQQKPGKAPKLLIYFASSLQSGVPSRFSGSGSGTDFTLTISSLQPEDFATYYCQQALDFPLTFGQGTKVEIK; 0.305
IFWM3350 (antibody, V domains shown, VH IFWH624, VL IFWL1009; converted mAb; also called IFWB3085) VH: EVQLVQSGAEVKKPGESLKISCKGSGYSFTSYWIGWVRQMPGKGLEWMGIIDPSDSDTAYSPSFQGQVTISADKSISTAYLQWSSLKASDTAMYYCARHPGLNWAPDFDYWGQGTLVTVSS VL: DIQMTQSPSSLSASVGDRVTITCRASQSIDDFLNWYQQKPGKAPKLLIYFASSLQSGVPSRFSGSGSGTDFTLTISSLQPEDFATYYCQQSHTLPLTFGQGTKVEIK; 0.055

Tell me measured Kd for IFWM3331 (antibody, V domains shown, VH IFWH591, VL IFWL1073; converted mAb; also called IFWB3066) VH: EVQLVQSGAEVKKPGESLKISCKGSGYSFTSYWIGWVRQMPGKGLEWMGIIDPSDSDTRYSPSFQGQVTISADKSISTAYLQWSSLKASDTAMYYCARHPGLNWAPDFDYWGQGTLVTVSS VL: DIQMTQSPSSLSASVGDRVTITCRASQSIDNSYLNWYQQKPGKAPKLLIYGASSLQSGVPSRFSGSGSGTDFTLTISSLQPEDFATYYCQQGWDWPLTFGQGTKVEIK please.
0.072

Reference source: patent US20150368338A1
